Origin of values: PubChem BioAssay AID1671190

# STUDY TARGET: Polyunsaturated fatty acid lipoxygenase ALOX12 (Homo sapiens)
# ASSAY INFO: Primary qHTS assay for inhibitors of human arachidonate 12S-lipoxygenase (ALOX12): Round 2
# MEASUREMENT CONTEXT: purified 12hLO, xylenol orange hydroperoxide absorbance; series mostly up to 108 µM
About 6,100 (1.1%) of roughly 580,000 compounds were called active. Roughly 15% stayed inconclusive and do not appear here. Calls come from the whole dose curve; as a rule, active = well fitted inhibition curve with a large enough effect; inconclusive = small, poorly fitted or top-dose-only effect, or another doubt; inactive = no such curve, though single readings can be large or run the other way. This is one part of a sample in which actives are shown more often than they occur.
Choose the fitting class; nothing outside 1 for active, 0 for inactive is accepted.

## Task Recorded test call requested for COCCNC(=O)COc1ccc2c(C)c(Cc3ccccc3)c(=O)oc2c1C
## Result 0

## Task What outcome does the record of this test show for CC(=O)NC1(C)CN(Cc2ccc(-c3ccc4c(ccn4C)c3)s2)C1 ?
## Result 0

## Task Record request — test call for COc1ccc(OC)c(NC(=O)c2nc3ccccc3nc2N2CCCC2)c1
## Result 0

## Task Hi, sorry to bother you, what did the test record for S=c1[nH]nc(-c2cc(-c3ccsc3)n[nH]2)n1-c1ccccc1 ?
## Result 1

## Task Look up the recorded call for CC(=O)NC1(C)CCN(Cc2cnc(-c3ccc4c(ccn4C)c3)s2)CC1 in this test.
## Result 1

## Task Please let me know the test result on file for COc1ccc2cc(C(=O)C3CCCN(C(=O)c4sc(C)nc4C)C3)ccc2c1 (stereo unspecified) .
## Result 0

## Task Hi team, can someone confirm the assay call for CCOC(=O)c1ccc(NC(=O)c2c(NCc3cccs3)sc3c2CCCC3)cc1 ?
## Result 0

## Task I would be grateful if you could indicate the recorded call for COc1ccc2nc(N3CCCC(O)C3)c(C#N)cc2c1 (stereo unspecified) .
## Result 1

## Task Please share the test call associated with CCCCC(CC(C)O)c1n[nH]c(=S)n1-c1ccccc1 (stereo unspecified) .
## Result 0

## Task Each molecule tested received a call. Report the one for Cc1ccc(NC(=O)c2c(NC(=O)CCC(=O)O)sc3c2CCCCC3)cc1 .
## Result 1

## Task In this assay, the call recorded for Cc1ccc(NC(=O)CCc2nc(C(C)(C)C)no2)nc1 was what?
## Result 0

====

# STUDY TARGET: Polyunsaturated fatty acid lipoxygenase ALOX12 (Homo sapiens) (UniProt P18054)
# Sequence (P18054 whole entry, looked up): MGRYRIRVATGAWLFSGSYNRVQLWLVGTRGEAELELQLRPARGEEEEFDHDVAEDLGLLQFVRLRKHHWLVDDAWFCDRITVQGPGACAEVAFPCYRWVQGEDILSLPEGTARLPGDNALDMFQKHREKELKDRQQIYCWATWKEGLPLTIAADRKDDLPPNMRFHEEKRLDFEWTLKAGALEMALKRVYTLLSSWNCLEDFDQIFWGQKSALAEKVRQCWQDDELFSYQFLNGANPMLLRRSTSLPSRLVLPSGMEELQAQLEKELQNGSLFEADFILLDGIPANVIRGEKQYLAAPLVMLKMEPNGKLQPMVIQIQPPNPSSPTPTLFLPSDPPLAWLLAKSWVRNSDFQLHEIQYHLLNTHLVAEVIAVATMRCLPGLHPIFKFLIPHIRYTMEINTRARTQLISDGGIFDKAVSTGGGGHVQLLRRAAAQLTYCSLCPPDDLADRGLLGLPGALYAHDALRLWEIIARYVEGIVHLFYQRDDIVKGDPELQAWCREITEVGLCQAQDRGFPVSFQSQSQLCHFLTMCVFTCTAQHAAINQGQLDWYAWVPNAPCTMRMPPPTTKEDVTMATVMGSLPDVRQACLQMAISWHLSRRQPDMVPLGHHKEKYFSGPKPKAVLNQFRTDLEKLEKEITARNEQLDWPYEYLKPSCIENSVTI
# ASSAY INFO: Primary qHTS assay for inhibitors of human arachidonate 12S-lipoxygenase (ALOX12): Round 2
# MEASUREMENT CONTEXT: purified 12hLO, xylenol orange hydroperoxide absorbance; series mostly up to 108 µM
# Source text: Assay Provider: Theodore R. Holman Ph.D. University of California, Santa Cruz, California Human lipoxygenase 12hLO is a member of the closely related lipoxygenase family of enzymes which catalyze the site-specific oxidation of arachidonic acid to various hormone precursor molecules and as such is a candidate for drug development in a variety of disease areas, such as cancer and inflammation. […] The Fe (III)-XO complex is characterized with red-shifted absorbance at 560 nm. […]
Among all 580,000 compounds or so, about 6,100 (1.1%) were called active. Another 15% or so got no clear call; they are omitted. Calls follow the shape of the dose curve; as a rule, active = well fitted inhibition curve with a large enough effect; inconclusive = small, poorly fitted or top-dose-only effect, or another doubt; inactive = no such curve, though single readings can be large or run the other way. The full list was thinned out, with actives kept by preference.
Respond with a class label; see class 1 = active, class 0 = inactive

## Task Called result for CCN(CC(=O)Nc1cc(Cl)ccc1C)C(=O)CSCc1ccccc1
## Result class 0

## Task Which outcome was assigned to CC(C)C(=O)N(Cc1ccc2cc[nH]c2c1)C1CC1 in this test?
## Result class 0

## Task What is the recorded call for this compound in the test? Cn1c(=O)c2c(nc(NCc3ccccc3)n2Cc2cccc(F)c2)n(C)c1=O
## Result class 0

## Task Called result for CC(C)OCC(O)Cn1c(NCc2ccccc2)nc2c1c(=O)[nH]c(=O)n2C (stereo not drawn)
## Result class 0

## Task Tell me the recorded outcome of this test for O=C(NCC1CCCCO1)C1(Oc2ccc(Cl)cc2)CCNCC1 (stereo not drawn) .
## Result class 0

## Task Short answer needed: outcome of this test for NC(=O)Cc1csc(NC(=O)CCc2ncc(-c3ccc(Cl)cc3Cl)o2)n1 ?
## Result class 0

## Task What did the test return for Cc1ccc(-c2nnc(SCc3ncc(-c4ccccc4)o3)o2)cc1 ?
## Result class 0

## Task Hey, what did the test say about O=C(NCC1CCOCC1)C1COc2ccccc2O1 (stereo not drawn) ?
## Result class 0

## Task Short answer needed: outcome of this test for CCCCOc1cc(O)c2c(=O)cc(-c3ccccc3)oc2c1 ?
## Result class 0

## Task State the result this test recorded for COc1c(O)cc2oc(-c3ccc(O)c(O)c3)cc(=O)c2c1O .
## Result class 1

## Task Each compound tested received a call. Report the one for Cc1ccccc1N/C(SCc1ccc(Cl)cc1)=C(/C#N)C(N)=O .
## Result class 1

## Task Answer briefly: the call reported for CCCn1nc(C(=O)Nc2ccc(OC)c(S(=O)(=O)N(C)C)c2)c2ccccc2c1=O in this assay.
## Result class 0

## Task Just curious, what result did CC(C)Cn1cncc1CNC(=O)c1ccc2nc(-c3ccc(F)cc3)cn2c1 get here?
## Result class 0

## Task Short answer needed: outcome of this test for COc1cccc(-c2cn3c(n2)NCCC3)c1 ?
## Result class 0

## Task So what was the verdict on C(=NCc1ccccc1)c1cn(-c2ccccc2)nc1-c1cccs1 in this test?
## Result class 1

## Task Which result was noted for this compound in the test: O=C(Nc1nc(-c2ccncc2)cs1)C1COc2ccccc2O1 (stereo not drawn)
## Result class 1

## Task What classification did O=C(Cn1nc2c(cc1=O)CCCCC2)Nc1nc(-c2ccncc2)cs1 end up with in this test?
## Result class 0

## Task Returns: the outcome recorded for O=C(O)c1ccc(S(=O)(=O)Nc2cc(F)ccc2OCC(F)(F)F)cc1 in this assay.
## Result class 0

## Task Query: recorded result category for CCC(=O)N1N=C(c2ccc(OC)cc2)CC1c1cn(-c2ccccc2)nc1-c1cccs1 (stereo not drawn) in this test
## Result class 0

## Task Please indicate how the test categorized COc1ccc(CC(=O)N2CC3ON=C(c4c(F)cccc4Cl)C3C2)cc1OC (stereo not drawn) .
## Result class 0

## Task Outcome? CCCn1nc(C(=O)NC2CCN(C(C)C)CC2)c2ccccc2c1=O
## Result class 0

## Task Check the results log: what was the call for CCN(c1ccc(-c2csc(-c3ccccc3)n2)cc1)S(C)(=O)=O ?
## Result class 0

## Task Identify the outcome logged in this assay for the compound shown: COCCNC(=O)COc1cc(O)c2c(=O)cc(-c3ccccc3)oc2c1
## Result class 0
